# Test system: LNCaP
# MEASUREMENT PROTOCOL: Cytotoxicity against human LNcaP cells after 48 hrs by SRB assay
# Format: functional
# key: entry, value: GI50
QUANTITY MEASURED: GI50 (nM)

- C/C=C1\NC(=O)[C@H](CCC2CCCCC2)NC(=O)[C@@H](C(C)C)NC(=O)[C@@H]([C@@H](C)CC)NC(=O)[C@H](NC(=O)[C@H](NC(=O)[C@H](CCCN)NC(=O)[C@H]2CCCN2C(=O)[C@H](NC(=O)[C@@H](NC(=O)[C@@H](NC(=O)[C@H](NC(=O)CCCC(C)C)C(C)C)[C@@H](C)O)C(C)C)C(C)C)[C@@H](C)CC)[C@@H](C)OC(=O)[C@H](C(C)C)NC1=O: 384
- C/C=C1\NC(=O)[C@H](Cc2ccccc2)NC(=O)[C@@H](C(C)C)NC(=O)[C@@H]([C@H](C)CC)NC(=O)[C@H](NC(=O)[C@H](NC(=O)[C@H](CCCNC(=O)CCCC[C@@H]2SC[C@@H]3NC(=O)N[C@@H]32)NC(=O)[C@H]2CCCN2C(=O)[C@H](NC(=O)[C@@H](NC(=O)[C@@H](NC(=O)[C@H](NC(=O)CCCC(C)C)C(C)C)[C@@H](C)O)C(C)C)C(C)C)[C@H](C)CC)[C@H](C)OC(=O)[C@H](C(C)C)NC1=O: 816
- C/C=C1\NC(=O)[C@H](Cc2ccccc2)NC(=O)[C@@H](CCC2CCCCC2)NC(=O)[C@@H](CCC2CCCCC2)NC(=O)[C@H](NC(=O)[C@@H](CCC2CCCCC2)NC(=O)[C@H](CCCN)NC(=O)[C@H]2CCCN2C(=O)[C@H](NC(=O)[C@@H](NC(=O)[C@@H](NC(=O)[C@H](NC(=O)CCCC(C)C)C(C)C)[C@@H](C)O)C(C)C)C(C)C)[C@H](C)OC(=O)[C@H](C(C)C)NC1=O: 304
